Data origin: ChEMBL document CHEMBL1140645

# procedure-text: Cytotoxicity against human EAhy926 cells assessed as cell survival fraction at 50 ug/ml after 24 hrs by trypan blue exclusion test
# assay-context: ea.hy 926, at 50 µg/mL
1 (yes) if viability at 24 h, 50 ug/ml is below 50%. 0 (no) if not; exact matches included in 0 (no).

Answered cases to consult:
c1ccc(-c2csc(NN=C3CCCCCC3)n2)cc1 :: 0 (no)
Cc1ccc(-c2csc(N/N=C3\CCCC(C)C3)n2)cc1 (stereo unspecified) :: 1 (yes)
Cc1ccc(-c2csc(NN=C3CCCC3)n2)cc1 :: 0 (no)
CC1CCC/C(=N\Nc2nc(-c3ccc(Cl)cc3)cs2)C1 (stereo unspecified) :: 1 (yes)
COc1ccc(-c2csc(N/N=C3\CCCC(C)C3)n2)cc1 (stereo unspecified) :: 0 (no)

Below: the item to evaluate.
### Prompt Is the reported viability at 24 h, 50 ug/ml for Clc1ccc(-c2csc(NN=C3CCCC3)n2)cc1 strictly below 50%?
### Response 0 (no)

----------
# procedure-text: Cytotoxicity against human EAhy926 cells assessed as cell survival fraction at 5 ug/ml after 24 hrs by trypan blue exclusion test
# assay-context: ea.hy 926, at 5 µg/mL
Let's look at some compounds and their measured viability at 24 h, 5 ug/ml.
Value expressed in %; do not type the unit.

Worked examples, 5 compounds total:
Clc1ccc(-c2csc(NN=C3CCCC3)n2)cc1 :: 81
CC1CCC/C(=N\Nc2nc(-c3ccc(Cl)cc3)cs2)C1 (stereo unspecified) :: 50
N#Cc1ccc(-c2csc(NN=C3CCCC3)n2)cc1 :: 81
CC1CCC/C(=N\Nc2nc(-c3ccc(F)cc3)cs2)C1 (stereo unspecified) :: 60
COc1ccc(-c2csc(N/N=C3\CCCC(C)C3)n2)cc1 (stereo unspecified) :: 72.7

Consider now this further compound.
Lab note: measured viability at 24 h, 5 ug/ml of c1ccc(-c2csc(NN=C3CCCCCC3)n2)cc1 was 80

----------
# procedure-text: Cytotoxicity against human EAhy926 cells assessed as cell survival fraction at 50 ug/ml after 24 hrs by trypan blue exclusion test
# assay-context: ea.hy 926, at 50 µg/mL
Condition met if viability at 24 h, 50 ug/ml is below 70%. Condition not met if not; exact matches included in Condition not met.

Answered cases to consult:
COc1ccc(-c2csc(NN=C3CCCC3)n2)cc1 :: Condition met
CC1CCCC/C1=N\Nc1nc(-c2cccc([N+](=O)[O-])c2)cs1 (stereo not given) :: Condition not met
CC1CCC/C(=N\Nc2nc(-c3ccc(F)cc3)cs2)C1 (stereo not given) :: Condition met

### Prompt Is the reported viability at 24 h, 50 ug/ml for N#Cc1ccc(-c2csc(NN=C3CCCC3)n2)cc1 strictly below 70%?
### Response Condition not met

### Prompt Is the reported viability at 24 h, 50 ug/ml for CC1CCC/C(=N\Nc2nc(-c3ccc(C#N)cc3)cs2)C1 (stereo not given) strictly below 70%?
### Response Condition met

----------
# procedure-text: Cytotoxicity against human EAhy926 cells assessed as cell survival fraction at 5 ug/ml after 24 hrs by trypan blue exclusion test
# assay-context: ea.hy 926, at 5 µg/mL
reported-property: viability at 24 h, 5 ug/ml (%)
Value expressed in %; do not type the unit.

COc1ccc(-c2csc(NN=C3CCCC3)n2)cc1 :: 76.6
CC1CCC/C(=N\Nc2nc(-c3ccc(C#N)cc3)cs2)C1 (stereo not given) :: 50
CC1CCCC/C1=N\Nc1nc(-c2cccc([N+](=O)[O-])c2)cs1 (stereo not given) :: 85.7
Cc1ccc(-c2csc(N/N=C3\CCCC(C)C3)n2)cc1 (stereo not given) :: 72.7

Lab note: measured viability at 24 h, 5 ug/ml of Cc1ccc(-c2csc(NN=C3CCCC3)n2)cc1 was 80

----------
# Test system: Pichia kudriavzevii
# procedure-text: Antifungal activity against Candida krusei after 24 hrs by broth microdilution method
# Assay type: functional
Let's look at some molecules and their measured log10 MIC.
Note the log scale: values are log10 of MIC expressed in µg/mL.

Worked examples, 5 molecules total:
CC1CCCC/C1=N\Nc1nc(-c2ccc(Br)cc2)cs1 (configuration not stated) :: 1.81
Clc1ccc(-c2csc(NN=C3CCCC3)n2)cc1 :: 1.81
N#Cc1ccc(-c2csc(NN=C3CCCC3)n2)cc1 :: 1.51
COc1ccc(-c2csc(N/N=C3\CCCC(C)C3)n2)cc1 (configuration not stated) :: 0.30
COc1ccc(-c2csc(NN=C3CCCC3)n2)cc1 :: 1.51

Lab note: measured log10 MIC of CC1CCCC/C1=N\Nc1nc(-c2ccc(-c3ccccc3)cc2)cs1 (configuration not stated) was 1.20

Lab note: measured log10 MIC of Cc1ccc(-c2csc(NN=C3CCCC3)n2)cc1 was 1.81

Lab note: measured log10 MIC of Cc1ccc(-c2csc(N/N=C3\CCCC(C)C3)n2)cc1 (configuration not stated) was -0.30

Lab note: measured log10 MIC of CC1CCC/C(=N\Nc2nc(-c3ccc(C#N)cc3)cs2)C1 (configuration not stated) was 0.60

Lab note: measured log10 MIC of O=[N+]([O-])c1ccc(-c2csc(NN=C3CCCC3)n2)cc1 was 1.51

----------
Let's look at some molecules and their measured viability at 24 h, 0.5 ug/ml.
# procedure-text: Cytotoxicity against human EAhy926 cells assessed as cell survival fraction at 0.5 ug/ml after 24 hrs by trypan blue exclusion test
# assay-context: ea.hy 926, at 0.5 µg/mL
Value expressed in %; do not type the unit.

CC1CCC/C(=N\Nc2nc(-c3ccc(F)cc3)cs2)C1 (stereo unspecified) :: 76.9
CC1CCC/C(=N\Nc2nc(-c3ccc(C#N)cc3)cs2)C1 (stereo unspecified) :: 68.7
Cc1ccc(-c2csc(NN=C3CCCC3)n2)cc1 :: 82
Cc1ccc(-c2csc(N/N=C3\CCCC(C)C3)n2)cc1 (stereo unspecified) :: 83.3
N#Cc1ccc(-c2csc(NN=C3CCCC3)n2)cc1 :: 84.7
CC1CCC/C(=N\Nc2nc(-c3ccc(Cl)cc3)cs2)C1 (stereo unspecified) :: 70
COc1ccc(-c2csc(N/N=C3\CCCC(C)C3)n2)cc1 (stereo unspecified) :: 80
c1ccc(-c2csc(NN=C3CCCCCC3)n2)cc1 :: 87.5

Lab note: measured viability at 24 h, 0.5 ug/ml of CC1CCCC/C1=N\Nc1nc(-c2cccc([N+](=O)[O-])c2)cs1 (stereo unspecified) was 86

Lab note: measured viability at 24 h, 0.5 ug/ml of COc1ccc(-c2csc(NN=C3CCCC3)n2)cc1 was 82.4

Lab note: measured viability at 24 h, 0.5 ug/ml of Clc1ccc(-c2csc(NN=C3CCCC3)n2)cc1 was 89.2

----------
Let's look at some molecules and their measured viability at 24 h, 0.05 ug/ml.
# procedure-text: Cytotoxicity against human EAhy926 cells assessed as cell survival fraction at 0.05 ug/ml after 24 hrs by trypan blue exclusion test
# assay-context: ea.hy 926, at 0.05 µg/mL
Returns: string containing the numeric result and its unit.

Worked examples, 5 molecules total:
COc1ccc(-c2csc(N/N=C3\CCCC(C)C3)n2)cc1 (stereo unspecified) :: 83.3%
Cc1ccc(-c2csc(N/N=C3\CCCC(C)C3)n2)cc1 (stereo unspecified) :: 84%
N#Cc1ccc(-c2csc(NN=C3CCCC3)n2)cc1 :: 88.9%
Cc1ccc(-c2csc(NN=C3CCCC3)n2)cc1 :: 85.4%
CC1CCCC/C1=N\Nc1nc(-c2cccc([N+](=O)[O-])c2)cs1 (stereo unspecified) :: 88.8%

Lab note: measured viability at 24 h, 0.05 ug/ml of CC1CCC/C(=N\Nc2nc(-c3ccc(F)cc3)cs2)C1 (stereo unspecified) was 80%

Lab note: measured viability at 24 h, 0.05 ug/ml of c1ccc(-c2csc(NN=C3CCCCCC3)n2)cc1 was 94.7%

Lab note: measured viability at 24 h, 0.05 ug/ml of Clc1ccc(-c2csc(NN=C3CCCC3)n2)cc1 was 86%

----------
# Tested on: Pichia kudriavzevii
# procedure-text: Antifungal activity against Candida krusei after 24 hrs by broth microdilution method
# Type: functional
reported-property: MIC (µg/mL)
Value expressed in µg/mL; do not type the unit.

c1ccc(-c2csc(NN=C3CCCCCC3)n2)cc1 :: 8
CC1CCC/C(=N\Nc2nc(-c3ccc(Cl)cc3)cs2)C1 (configuration not stated) :: 4

Consider now this further compound.
Lab note: measured MIC of CC1CCC/C(=N\Nc2nc(-c3ccc(F)cc3)cs2)C1 (configuration not stated) was 4

----------
# procedure-text: Cytotoxicity against human EAhy926 cells assessed as cell survival fraction at 0.05 ug/ml after 24 hrs by trypan blue exclusion test
# assay-context: ea.hy 926, at 0.05 µg/mL
Let's look at some compounds and their measured viability at 24 h, 0.05 ug/ml.
Value expressed in %; do not type the unit.

Worked examples, 2 compounds total:
CC1CCC/C(=N\Nc2nc(-c3ccc(C#N)cc3)cs2)C1 (stereo not drawn) :: 68.8
CC1CCC/C(=N\Nc2nc(-c3ccc(Cl)cc3)cs2)C1 (stereo not drawn) :: 73

Consider now this further compound.
Lab note: measured viability at 24 h, 0.05 ug/ml of COc1ccc(-c2csc(NN=C3CCCC3)n2)cc1 was 85
